Field: pIC50. Provide a value for each of the compounds that follow.
System: T-47D spheroids with HUVEC/MSC, viability
Assay: Anticancer human tumor T-47D cell line growth inhibition [PI3K];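 further: spheroids exposed to agents for seven days before reading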
Conditions: curve of first compound; second compound 10 µM
pIC50: −log10 of the molar value.

Exam item: What value of pIC50 has been reported for the following compound? Cn1cnc2c(F)c(Nc3ccc(Br)cc3Cl)c(C(=O)NOCCO)cc21 + Cc1nc(NC(=O)N2CCCC2C(N)=O)sc1-c1ccnc(C(C)(C)C(F)(F)F)c1
Marked response: > 8.02

Exam item: Entry CC(C)NCC(C(=O)N1CCN(c2ncnc3c2C(C)CC3O)CC1)c1ccc(Cl)cc1 (stereo not drawn) + Cc1nc(NC(=O)N2CCCC2C(N)=O)sc1-c1ccnc(C(C)(C)C(F)(F)F)c1 has what pIC50?
Marked response: > 7.50

Exam item: Bench note: what pIC50 did CC(C)n1nc(-c2ccc3oc(N)nc3c2)c2c(N)ncnc21 + CC(Nc1ncnc2nc[nH]c12)c1cc2cccc(Cl)c2c(=O)n1-c1ccccc1 show?
Marked response: 7.29

---

System: T-47D spheroids with HUVEC/MSC, viability
Assay: Anticancer human tumor T-47D cell line growth inhibition [PI3K];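 further: spheroids exposed to agents for seven days before reading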
Conditions: curve of first compound; second compound 0.316 µM
Text: Combinatorial screen of targeted agents with the PI3K inhibitors inavolisib, alpelisib, duvelisib, and copanlisib in multi-cell type tumor spheroids A high-throughput screen of multi-cell type tumor spheroids was designed to identify active combinations of targeted small molecules and PI3K pathway inhibitors. […] Compounds. […] If the clinical Cmax for an agent had not been determined, the highest concentration tested was 10 microM. […]
Assign IC50 to each entry below.

Exam item: IC50 for C#Cc1c(F)ccc2cc(O)cc(-c3ncc4c(N5CC6CCC(C5)N6)nc(OCC56CCCN5CC(F)C6)nc4c3F)c12 (stereo not given) + CC(Nc1ccc2c(c1)OCCn1cc(N3C(=O)OCC3C(F)F)nc1-2)C(N)=O ?
Marked response: > 10 µM

Exam item: What IC50 value was documented for this compound, CC(Cn1ccc(-c2ccc(C#N)c(Cl)c2)n1)NC(=O)c1cc(C(C)O)[nH]n1 (stereo not given) + CC(Nc1ccc2c(c1)OCCn1cc(N3C(=O)OCC3C(F)F)nc1-2)C(N)=O ?
Marked response: > 10 µM

Exam item: For Cn1nccc1Nc1nccc(-c2ccn(C(CO)c3ccc(Cl)c(F)c3)c(=O)c2)n1 (stereo not given) + CC(Nc1ccc2c(c1)OCCn1cc(N3C(=O)OCC3C(F)F)nc1-2)C(N)=O , what is its reported IC50?
Marked response: > 10 µM

Exam item: Tell me the measured IC50 of Cn1ncc(Cl)c1-c1cc(C(=O)NC(CN)Cc2cccc(F)c2)sc1Cl (stereo not given) + COc1c(OCCCN2CCOCC2)ccc2c3n(c(=NC(=O)c4cnc(N)nc4)nc12)CCN3 , please.
Marked response: < 0.0316 µM

Exam item: Look up IC50: Cn1ncnc1[C@H]1c2n[nH]c(=O)c3cc(F)cc(c23)N[C@@H]1c1ccc(F)cc1 + COc1c(OCCCN2CCOCC2)ccc2c3n(c(=NC(=O)c4cnc(N)nc4)nc12)CCN3
Marked response: < 0.000316 µM

---

System: T-47D spheroids with HUVEC/MSC, viability
Test: Anticancer human tumor T-47D cell line growth inhibition [PI3K]; active = viability on the fitted dose curve at most 10% of control; inactive = the rest;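 further: spheroids exposed to agents for seven days before reading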
Conditions: second compound 1 µM; first compound 1 µM
Excerpt: Combinatorial screen of targeted agents with the PI3K inhibitors inavolisib, alpelisib, duvelisib, and copanlisib in multi-cell type tumor spheroids A high-throughput screen of multi-cell type tumor spheroids was designed to identify active combinations of targeted small molecules and PI3K pathway inhibitors. […] Compounds. […] If the clinical Cmax for an agent had not been determined, the highest concentration tested was 10 microM. […]
Hi! Could you answer with just one of these? active, inactive

Exam item: Recorded test call requested for C#Cc1c(F)ccc2cc(O)cc(-c3ncc4c(N5CC6CCC(C5)N6)nc(OCC56CCCN5CC(F)C6)nc4c3F)c12 (stereo not given) + COc1c(OCCCN2CCOCC2)ccc2c3n(c(=NC(=O)c4cnc(N)nc4)nc12)CCN3
Marked response: active

Exam item: Called result for CC1(C)CCC(Nc2ncc(C(F)(F)F)c(-c3c[nH]c4c(P(C)(C)=O)c(C#N)ccc34)n2)CN1 (stereo not given) + COc1c(OCCCN2CCOCC2)ccc2c3n(c(=NC(=O)c4cnc(N)nc4)nc12)CCN3
Marked response: active

Exam item: What call does the record list for CC(Cn1ccc(-c2ccc(C#N)c(Cl)c2)n1)NC(=O)c1cc(C(C)O)[nH]n1 (stereo not given) + CC(Nc1ncnc2nc[nH]c12)c1cc2cccc(Cl)c2c(=O)n1-c1ccccc1 ?
Marked response: inactive

Exam item: I'd appreciate the recorded outcome for C#Cc1c(F)ccc2cc(O)cc(-c3ncc4c(N5CC6CCC(C5)N6)nc(OCC56CCCN5CC(F)C6)nc4c3F)c12 (stereo not given) + Cc1nc(NC(=O)N2CCCC2C(N)=O)sc1-c1ccnc(C(C)(C)C(F)(F)F)c1 from this test.
Marked response: inactive

Exam item: Returns: the outcome recorded for CC1(C)CCC(CN2CCN(c3ccc(C(=O)NS(=O)(=O)c4ccc(NCC5CCOCC5)c([N+](=O)[O-])c4)c(Oc4cnc5[nH]ccc5c4)c3)CC2)=C(c2ccc(Cl)cc2)C1 + CC(Nc1ncnc2nc[nH]c12)c1cc2cccc(Cl)c2c(=O)n1-c1ccccc1 in this assay.
Marked response: inactive
